Data origin: patent US10968231B2

- targetDesc: human GPR40 (Homo sapiens)
- Construct: expressed in transfected cells
- Sequence (O14842 whole entry): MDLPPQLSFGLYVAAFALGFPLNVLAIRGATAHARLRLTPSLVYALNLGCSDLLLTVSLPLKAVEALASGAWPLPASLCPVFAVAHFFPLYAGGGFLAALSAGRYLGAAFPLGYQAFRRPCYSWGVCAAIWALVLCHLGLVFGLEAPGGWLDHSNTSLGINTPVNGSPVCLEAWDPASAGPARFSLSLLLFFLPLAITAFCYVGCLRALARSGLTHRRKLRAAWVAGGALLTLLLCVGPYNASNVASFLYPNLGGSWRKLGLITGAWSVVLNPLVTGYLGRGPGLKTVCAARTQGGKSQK
- experiment: Evaluation of human GPR40 agonist activity with increase in intracellular Ca2+ concentration as an index (FLIPR)
- Type: cell-based
- conditionSet: test compound at final concentration of 1 μM; CHO(dhfr−) cells stably expressing human GPR40; 100% = activity of 10 μM of compound of WO 2015/020184 Example 153, 0% = DMSO
Task for the reader: assign each of the following compounds its reported activity (human GPR40 agonist activity).
Give just the number in %; leave the unit off.

Incoming: Returns the measured activity (human GPR40 agonist activity) for the input compound. Input: COc1cc(N2CCC(COc3cc4c(cn3)OCCC4CC(=O)O)CC2)c(OCC(F)(F)C(F)(F)F)cn1 (stereo not shown) [Example 11]
Outgoing: 107

Incoming: Returns the measured activity (human GPR40 agonist activity) for the input compound. Input: COc1ccc(C2CCN(CC(F)(F)F)CC2)c(N2CCC(COc3cc4c(cn3)OCCC4CC(=O)O)CC2)c1 (stereo not shown) [Example 9]
Outgoing: 104

Incoming: Returns the measured activity (human GPR40 agonist activity) for the input compound. Input: COc1ccc(CCC(F)(F)F)c(N2CCC(COc3cc4c(cn3)OCCC4CC(=O)O)CC2)c1 (stereo not shown) [Example 18]
Outgoing: 41

Incoming: Returns the measured activity (human GPR40 agonist activity) for the input compound. Input: COc1cc(N2CCC(COc3cc4c(cn3)OCCC4CC(=O)O)CC2)c(C2CCN(CC(F)(F)F)CC2)cn1 (single isomer, unassigned) [Example 7]
Outgoing: 107
